- Test system: ~100 representative kinases
- assay_info: DSF 100 kinase selectivity screen;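 note: compound tested at 20 µM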
- Format: binding
- assay_setup: Protein BRD; average of three replicates
dTm overview
The figure you give is taken to be in K; do not add the unit.

Sample answers from the record:
[
  {
    "compound_string": "O=C(Nc1cccc(-c2c[nH]c3ncnc(N4CCOCC4)c23)c1)C1(C(=O)Nc2ccc(F)c(Cl)c2)CC1",
    "dTm / K": 0.45
  },
  {
    "compound_string": "Cc1ccc(-n2nc(C(C)(C)C)cc2NC(=O)Nc2cccc(-c3c[nH]c4nc(Cl)nc(N5CCOCC5)c34)c2)cc1",
    "dTm / K": -1.65
  },
  {
    "compound_string": "O=C(Nc1cccc(-c2c[nH]c3ncnc(N4CCOCC4)c23)c1)C1(C(=O)Nc2ccc(F)c(F)c2)CC1",
    "dTm / K": 0.26
  }
]

Would you kindly look at the next entry?
// dTm lookup, key: O=C(Nc1cccc(-c2c[nH]c3ncnc(N4CCOCC4)c23)c1)C1(C(=O)Nc2ccc(F)cc2F)CC1
-1.02

###

- measured_target: ~100 representative kinases (Homo sapiens, UniProt O96017)
- Construct: Recombinant protein kinase domains with a concentration of 2 μM
- Sequence (O96017 whole entry, the tested form may be a part): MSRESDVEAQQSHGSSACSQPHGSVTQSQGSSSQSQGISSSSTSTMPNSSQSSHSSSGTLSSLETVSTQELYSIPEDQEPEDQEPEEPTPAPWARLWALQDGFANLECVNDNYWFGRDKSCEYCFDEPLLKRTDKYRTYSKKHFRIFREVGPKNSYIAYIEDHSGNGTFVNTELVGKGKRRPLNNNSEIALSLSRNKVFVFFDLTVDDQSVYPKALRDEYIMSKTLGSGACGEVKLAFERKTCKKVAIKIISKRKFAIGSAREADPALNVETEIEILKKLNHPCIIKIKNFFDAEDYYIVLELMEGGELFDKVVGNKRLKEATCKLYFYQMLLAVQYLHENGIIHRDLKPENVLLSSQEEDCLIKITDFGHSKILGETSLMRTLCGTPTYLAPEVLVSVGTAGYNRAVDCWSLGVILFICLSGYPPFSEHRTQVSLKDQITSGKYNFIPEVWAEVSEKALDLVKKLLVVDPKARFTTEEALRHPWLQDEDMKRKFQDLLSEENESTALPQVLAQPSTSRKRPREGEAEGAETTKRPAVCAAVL
- assay_info: DSF 100 kinase selectivity screen;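 note: compound tested at 20 µM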
- Assay type: binding
- assay_setup: Protein CHEK2; average of three replicates
measure_name: dTm (K)
The figure you give is taken to be in K; do not add the unit.

Sample answers from the record:
[
  {
    "molecule": "COc1ccc(NC(=O)C2(C(=O)Nc3cccc(-c4c[nH]c5ncnc(N6CCOCC6)c45)c3)CC2)cc1",
    "measured_target": "~100 representative kinases (Homo sapiens, UniProt O96017)",
    "scale_unit": "K",
    "dTm": 2.18
  },
  {
    "molecule": "C[C@@H]1CN(c2cc(-c3n[nH]c4ccc(OC5(C)CC5)cc34)ncn2)C[C@H](C)O1",
    "measured_target": "~100 representative kinases (Homo sapiens, UniProt O96017)",
    "scale_unit": "K",
    "dTm": 3.06
  },
  {
    "molecule": "COc1cc(C(=O)N2CCOCC2)c(F)cc1Nc1nc(N(C)C)c2c(Cl)c[nH]c2n1",
    "measured_target": "~100 representative kinases (Homo sapiens, UniProt O96017)",
    "scale_unit": "K",
    "dTm": 13.85
  },
  {
    "molecule": "Cc1ccc(C(=O)Nc2ccc(CN3CCN(C)CC3)c(C(F)(F)F)c2)cc1C#Cc1cnc2[nH]ncc2c1 [GZD-824, reference compound]",
    "measured_target": "~100 representative kinases (Homo sapiens, UniProt O96017)",
    "scale_unit": "K",
    "dTm": 5.84
  }
]

// dTm lookup, key: O=C(Nc1cccc(-c2c[nH]c3ncnc(N4CCOCC4)c23)c1)c1cccn(-c2ccc(F)cc2)c1=O
3.03

And O=C(Nc1cccc(-c2c[nH]c3ncnc(N4CCOCC4)c23)c1)C1(C(=O)Nc2ccc(F)c(Br)c2F)CC1 ?
2.81

And COc1cc(NC(=O)C2(C(=O)Nc3cccc(-c4c[nH]c5ncnc(N6CCOCC6)c45)c3)CC2)ccc1F ?
4.32

###

- measured_target: ~100 representative kinases (Homo sapiens)
- Construct: Recombinant protein kinase domains with a concentration of 2 μM
- assay_info: DSF 100 kinase selectivity screen;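 note: compound tested at 20 µM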
- Assay type: binding
- assay_setup: protein MAPK1; average of three replicates
- Method: Recombinant protein kinase domains with a concentration of 2 μM were mixed with a 20 μM compound solution in dimethyl sulfoxide (DMSO), 20 mM Hepes (pH 7.5), and 500 mM NaCl. SYPRO Orange (5000×, Invitrogen) was added as a fluorescence probe (1μl/ml). Subsequently, temperature-dependent protein unfolding profiles were measured using the QuantStudio 5 realtime PCR machine (Thermo Fisher Scientific, Waltham, MA, USA). […] The temperature was raised with a step rate of 3°C/min. […]
measure_name: dTm (K)
The figure you give is taken to be in K; do not add the unit.

// dTm lookup, key: CC(C)(C)c1cc(NC(=O)Nc2cccc(-c3c[nH]c4ncnc(N5CCOCC5)c34)c2)n(-c2ccc3ncccc3c2)n1 [Compound 28]
0.09

And COc1cc(C(=O)N2CCOCC2)c(F)cc1Nc1nc(N(C)C)c2c(Cl)c[nH]c2n1 [Compound 36] ?
1.60

And O=C(Nc1cccc(-c2c[nH]c3ncnc(N4CCOCC4)c23)c1)C1(C(=O)Nc2ccc(F)c(Br)c2)CC1 [Compound 19] ?
-0.09

And Cc1ccc(C(=O)Nc2ccc(CN3CCN(C)CC3)c(C(F)(F)F)c2)cc1C#Cc1c[nH]c2ncnc(N3CCOCC3)c12 [Compound 1] ?
0.68

###

- measured_target: ~100 representative kinases (Homo sapiens)
- Construct: Recombinant protein kinase domains with a concentration of 2 μM
- assay_info: DSF 100 kinase selectivity screen;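 note: compound tested at 20 µM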
- Assay type: binding
- assay_setup: Protein DAPK1; average of three replicates
Answer rule not met if dTm is under 0.01 K, and rule met if it is 0.01 K or more.

Illustrative cases are given below, each with its answer.
[
  {
    "compound_string": "CCNc1nc(Nc2cc(F)c(C(=O)N3CCOCC3)cc2OC)ncc1C(F)(F)F",
    "label_value": "rule met"
  },
  {
    "compound_string": "CC(C)(C)c1cc(NC(=O)Nc2cccc(-c3c[nH]c4ncnc(N5CCOCC5)c34)c2)n(-c2ccc3ncccc3c2)n1",
    "label_value": "rule met"
  },
  {
    "compound_string": "O=C(Nc1cccc(-c2c[nH]c3ncnc(N4CCOCC4)c23)c1)C1(C(=O)Nc2ccc(F)c(Br)c2F)CC1",
    "label_value": "rule not met"
  }
]

Does dTm meet or surpass 0.01 K for CN[C@@H]1C[C@H]2O[C@@](C)([C@@H]1OC)n1c3ccccc3c3c4c(c5c6ccccc6n2c5c31)C(=O)NC4 ?
rule met

And Cc1cc(NC(=O)C2(C(=O)Nc3cccc(-c4c[nH]c5ncnc(N6CCOCC6)c45)c3)CC2)ccc1F ?
rule met

And O=C(Nc1cccc(-c2c[nH]c3ncnc(N4CCOCC4)c23)c1)C1(C(=O)Nc2ccc(F)c(Br)c2)CC1 ?
rule not met

And O=C(Nc1cc(F)cc(Br)c1)C1(C(=O)Nc2cccc(-c3c[nH]c4ncnc(N5CCOCC5)c34)c2)CC1 ?
rule not met

###

dTm overview
- measured_target: ~100 representative kinases (Homo sapiens, UniProt P28482)
- Construct: Recombinant protein kinase domains with a concentration of 2 μM
- Sequence (P28482 whole entry, the tested form may be a part): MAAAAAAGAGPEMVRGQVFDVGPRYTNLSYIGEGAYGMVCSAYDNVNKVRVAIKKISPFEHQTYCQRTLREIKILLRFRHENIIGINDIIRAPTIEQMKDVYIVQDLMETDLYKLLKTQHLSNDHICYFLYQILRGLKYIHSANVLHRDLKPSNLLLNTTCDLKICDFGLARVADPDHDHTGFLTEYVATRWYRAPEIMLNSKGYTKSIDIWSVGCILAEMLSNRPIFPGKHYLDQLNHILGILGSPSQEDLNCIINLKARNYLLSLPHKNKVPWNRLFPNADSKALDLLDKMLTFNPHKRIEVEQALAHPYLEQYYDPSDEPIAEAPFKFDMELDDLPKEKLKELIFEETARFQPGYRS
- assay_info: DSF 100 kinase selectivity screen;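 note: compound tested at 20 µM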
- Type: binding
- assay_setup: protein MAPK1; average of three replicates
Number first, unit second: that is the form wanted.

[
  {
    "compound_string": "Cc1cc(NC(=O)C2(C(=O)Nc3ccc(F)cc3)CC2)cc(-c2c[nH]c3ncnc(N4CCOCC4)c23)c1",
    "dTm": "0.01 K"
  },
  {
    "compound_string": "O=C(Nc1cccc(-c2c[nH]c3ncnc(N4CCOCC4)c23)c1)C1(C(=O)Nc2ccc(F)c(Br)c2F)CC1",
    "dTm": "-0.03 K"
  },
  {
    "compound_string": "COc1cc(S(C)(=O)=O)ccc1Nc1nc(N(C)C)c2c(Cl)c[nH]c2n1",
    "dTm": "0.14 K"
  },
  {
    "compound_string": "CCSc1nc(NC)c2c(-c3cccc(NC(=O)Nc4cc(C(C)(C)C)nn4-c4ccc(C)cc4)c3)c[nH]c2n1",
    "dTm": "0.25 K"
  },
  {
    "compound_string": "Cc1ccc(-n2nc(C(C)(C)C)cc2NC(=O)Nc2cccc(-c3c[nH]c4ncnc(N5CCOCC5)c34)c2)cc1",
    "dTm": "-0.31 K"
  },
  {
    "compound_string": "O=C(Nc1cccc(-c2c[nH]c3ncnc(N4CCOCC4)c23)c1)C1(C(=O)Nc2ccc(F)cc2F)CC1",
    "dTm": "-0.16 K"
  },
  {
    "compound_string": "O=C(Nc1cccc(-c2c[nH]c3ncnc(N4CCOCC4)c23)c1)C1(C(=O)Nc2cc(Br)c(F)cc2F)CC1",
    "dTm": "-0.0637 K"
  },
  {
    "compound_string": "CCNc1nc(Nc2cc(F)c(C(=O)N3CCOCC3)cc2OC)ncc1C(F)(F)F",
    "dTm": "0.38 K"
  }
]

// dTm lookup, key: CCc1ccc(NC(=O)C2(C(=O)Nc3cccc(-c4c[nH]c5ncnc(N6CCOCC6)c45)c3)CC2)cc1
-0.47 K

And Cn1cc(-c2c[nH]c3ncnc(N4CCOCC4)c23)cc1C#N ?
0.55 K

And C[C@@H]1CN(c2cc(-c3n[nH]c4ccc(OC5(C)CC5)cc34)ncn2)C[C@H](C)O1 ?
0.49 K

And Cc1cc(NC(=O)C2(C(=O)Nc3cccc(-c4c[nH]c5ncnc(N6CCOCC6)c45)c3)CC2)ccc1F ?
0.024 K
